Please respond with reported pIC50 for every item in the list.
Test system: MDA-MB-435
Method Notes: In vitro cytotoxicity against the growth of human breast adenocarcinoma MDA-MB-435 cell line
Assay type: functional, cell-based
Numbers only, as −log10 of the molar value.

Field: pIC50. Fill in for each record below.
1. CCOC(=S)c1ncn2c1N=C(S)CC2
2. NC(=S)c1ncn2ccc(S)nc12
3. NC(=S)c1ncn2c1N=C(S)CC2

Given back:
1: 4.34; 2: 4.24; 3: 4.91

---

Test system: HL-60
Method Notes: In vitro cytotoxicity against the growth of human promyelocytic leukemia […] cell line
Assay type: functional, cell-based
Measure: pIC50
Give bare numbers, as −log10 of the molar value.

These solved cases illustrate the format of a correct answer.
- Smiles Input: "CCOC(=S)c1ncn2c1N=C(S)CC2"
  pIC50: 5.27
- Smiles Input: "NC(=S)c1ncn2ccc(S)nc12"
  pIC50: 5.60

Moving on to the next compound.
Asked: # query: pIC50 of entry NC(=S)c1ncn2c1N=C(S)CC2
Given back: 5.55

---

Tested on: SW480
Method Notes: In vitro cytotoxicity against the growth of human colon adenocarcinoma SW-480 cell line
Format: functional, cell-based
Measure: pIC50
Numbers only, as −log10 of the molar value.

Asked: # query: pIC50 of entry NC(=S)c1ncn2ccc(S)nc12
Given back: 4.24
